- Tested on: RXF 393 renal
- TEST: NCI-60 one-dose screen, 48 h
- REPORTED_CONDITIONS: 10 µM unless noted
This is part of a sample that, as a whole, favours compounds with a hit. Of some 83,000 tested, about 20% had one in any assay. Activity calls are given as the source filed them. Rule for the calls: active = growth percent below 10; inactive = the rest.
Thanks in advance; please answer with one of these: active, inactive

These recorded examples may help you get a feel for the data.
[[record]]
molecule = "COc1ccccc1N(C(C)=O)C1=C(Cl)C(=O)c2ccccc2C1=O"
label_class = "active"

[[record]]
molecule = "CN1CCN(c2ccc(NC(=O)c3cncnc3Nc3ccc(OCc4cccc(F)c4)c(Cl)c3)cc2)CC1"
label_class = "inactive"

[[record]]
molecule = "CCN1C(=O)N(CC)C2C1N=C(SCc1ccc(Cl)cc1)N2/N=C/C=C/c1ccccc1OC (stereo not given)"
label_class = "inactive"


input: Given CC(C)=CCNc1ncnc2c1ncn2C1OC(CO)C(O)C1O (stereo not given) , state the outcome it received in this test.
output: active

input: Outcome logged for Cc1[nH]c(C2CC(c3ccc(C(F)(F)F)c(F)c3)=NN2c2ccccc2)c(C)c1C(=O)NCC(F)(F)F (stereo not given) in this assay:
output: inactive

----------
- System: OVCAR-8 ovarian
- TEST: NCI-60 one-dose screen, 48 h (100 = growth as untreated, 0 = no growth, -100 = all killed)
- REPORTED_CONDITIONS: 10 µM unless noted
The panel holds about 83,000 compounds, 20% with a hit somewhere; the sample as a whole holds those more often. Calls of active or inactive are those of the source. The calls were made as follows: active = growth percent below 10; inactive = the rest.
RECORDED_METRIC: growth

Solved cases below.
[[record]]
molecule = "O=C(O)COc1ccc(Cl)c(Cl)c1"
recorded_metric = "growth"
recorded_result = "105% (inactive)"

[[record]]
molecule = "C=C1C(=O)O[C@H]2[C@H]1CC/C(COC(=O)NCc1ccc(Cn3c(=O)sn(-c4ccc(C#N)cc4)c3=O)cc1)=C\\CC[C@@]1(C)O[C@@H]21"
recorded_metric = "growth"
recorded_result = "74.1% (inactive)"

[[record]]
molecule = "COc1cccc(/C=N/NC(=O)c2ccccc2N2CCCC2)c1O"
recorded_metric = "growth"
recorded_result = "54.9% (inactive)"

[[record]]
molecule = "C=C(C)[C@@H]1CC[C@]2(C(N)=O)CC[C@]3(C)[C@H](CC[C@@H]4[C@@]5(C)CC[C@H](OCCC#N)C(C)(C)[C@@H]5CC[C@]43C)[C@@H]12"
recorded_metric = "growth"
recorded_result = "86.9% (inactive)"

[[record]]
molecule = "CCNc1nc(O)c(/C=C2\\C=Nc3ncccc32)s1"
recorded_metric = "growth"
recorded_result = "6.27% (active)"

[[record]]
molecule = "O=C(Nc1ccccc1N1CCCC1=O)c1oc2ccc(F)cc2c1-c1cnn(-c2ccccc2)c1"
recorded_metric = "growth"
recorded_result = "20.5% [50 µM] (inactive)"


For each of the items listed, what is its growth?
1. COc1ccc(C2=CC(c3cc(OC)c(OC)c(OC)c3)n3ncnc3N2)cc1 (configuration not stated)
2. CCN1C(=O)N(CC)C2Nn3c(s/c(=C\c4ccccc4Br)c3=O)=NC21 (configuration not stated)
3. COc1ccc2nc(Cl)c(/C=C3\CC(c4ccccc4)=NN(c4ccccc4)C3=O)cc2c1
4. CCOC(=O)C1=C(C)C(Cl)=N/C1=C\c1[nH]c(Cl)c(C)c1C(=O)OCC
5. CC(=C(c1ccc(OCCN2CCCCC2)cc1)c1ccc(OCCN2CCCCC2)cc1)c1ccc(Cl)cc1

output:
["5.91% (active)", "15.4% (inactive)", "41.8% (inactive)", "99.1% (inactive)", "-77.4% (active)"]

Give me growth for each of these molecules, listed below.
1. COc1ccc2cc(-c3ccnc4c(N=Nc5ccc(Cl)cc5)c(N)nn34)ccc2c1
2. Cc1[nH]c(C2CC(c3ccc(C(F)(F)F)c(F)c3)=NN2c2ccccc2)c(C)c1C(=O)NCC(F)(F)F (configuration not stated)
3. CC[C@]12C=CCN3CC[C@@]4(c5ccc(OC)cc5N(C)[C@H]4[C@@](O)(C(=O)OC)[C@@H]1OC(=O)CCC[P+](c1ccccc1)(c1ccccc1)c1ccccc1)[C@@H]32
4. Cc1ccc(/C=C/C(=O)c2cccc(OCCCOc3cccc(C(=O)/C=C/c4ccc(C)cc4)c3)c2)cc1
5. C=C(C)[C@@H]1CCC[C@]2(C(=O)N3CCN(C)CC3)CC[C@]3(C)[C@@H](CC[C@@H]4[C@@]5(C)CC/C(=N\NC(=O)c6ccncc6)C(C)(C)[C@@H]5CC[C@]43C)[C@@H]12
6. COc1ccc(/C=C2\COc3ccc(O)cc3C2=O)cc1

output:
["93.9% (inactive)", "87.8% (inactive)", "3.13% (active)", "87.5% (inactive)", "96.7% (inactive)", "95.3% (inactive)"]
